system: cancer stem cells; test: Survival rate of cancer stem cells after test compound is added (flow cytometry, Annexin V-FITC/PI, clinical specimen); assay type: cell-based, patient; conditions: Homo sapiens, 18 h, Laryngeal cancer; 10.0 μM
Here, each record is paired with measured viability at 10 µM data.
A number alone suffices; assume %.

> print(dat)
                                   compound    measurement.kind  readout.number
1  C=C1C(=O)O[C@@H]2[C@@H]3[C@@H](CC[C@@]3(C)O)[C@](C)(O)CC[C@@H]12  viability at 10 µM              84
2  C=C1C(=O)O[C@H]2[C@H]1CC[C@@](C)(OC)C1CC[C@@](C)(O)[C@@H]12 (stereo partly shown)  viability at 10 µM              85
3  C=C1C(=O)O[C@@H]2[C@H]3C(C)=CC[C@@]34O[C@@]4(C)CC[C@@H]12  viability at 10 µM              64

Form: compound = `[2H][C@@]1(CN(C)C)C(=O)O[C@@H]2[C@@H]3[C@@H](CCC34CC4)C3(CC[C@H]21)CC3` ; viability at 10 µM = 81

The compound listed as `CCOC(=O)[C@@H]1CCCN1C[C@@H]1C(=O)O[C@H]2[C@H]1CCC1(CC1)[C@@H]1CCC3(CC3)[C@H]21` has a reported viability at 10 µM of 85

* * *

test system: cancer cells; assay: Survival rate of cancer cells after test compound is added (flow cytometry, Annexin V-FITC/PI, clinical specimen); assay type: cell-based, patient; conditions: Homo sapiens, 18 h, Lung cancer; 20.0 μM; read-out: Survival rate (%) All cells (Stem cells and ordinary cells)
Response field label takes 1.0 when viability at 20 µM is strictly below 70% and 0.0 in all other cases.

These recorded examples may help you get a feel for the data.
> print(dat)
                                   molecule  assay.target  category.label
1  C=C1C(=O)O[C@H]2[C@H]1CC[C@]1(C)O[C@@]13CC[C@@](C)(O)[C@H]23 [Compound 24]  cancer cells             1.0
2  C=C1C(=O)O[C@@H]2[C@@H]3[C@@H](CC[C@@]3(C)O)C(=C)CC[C@@H]12 [Compound 48]  cancer cells             1.0
3  C=C1C(=O)O[C@@H]2[C@H]3C(C)=CC[C@@]34O[C@@]4(C)CC[C@@H]12 [Compound 50]  cancer cells             1.0
4  CC1=C2CC[C@@](C)(O)[C@@H]2[C@H]2OC(=O)[C@@H](CN(C)C)[C@@H]2CC1 [Compound 23]  cancer cells             0.0

Enquiry: Given C=C1CC[C@H]2C(=C)CC[C@H]3C(=C)C(=O)O[C@@H]3[C@@H]12 [Compound 25] , is recorded viability at 20 µM strictly lower than 70%?
Return: 1.0

* * *

test system: cancer stem cells; test: Survival rate of cancer stem cells after test compound is added (flow cytometry, Annexin V-FITC/PI, clinical specimen); type: cell-based, patient; settings: Homo sapiens, 18 h, Colorectal cancer; 20.0 μM
Criterion: viability at 20 µM strictly under 70%. Met: 1. Not met: -1.

Sample answers from the record:
> print(dat)
                    structure.smiles.string       assay.target  category.label
1  C=C1C(=O)O[C@H]2[C@H]1CCC(C)=C1CC[C@@](C)(OC(=O)CCCc3cn(CCCCCCO)nn3)[C@@H]12  cancer stem cells               1
2  C=C1C(=O)O[C@@H]2[C@H]3C(C)=CC[C@@]34O[C@@]4(C)CC[C@@H]12  cancer stem cells               1
3  CCOC(=O)[C@@H]1CCCN1C[C@@H]1C(=O)O[C@H]2[C@H]1CCC1(CC1)[C@@H]1CCC3(CC3)[C@H]21  cancer stem cells              -1
4  CN(C)C[C@@H]1C(=O)O[C@H]2[C@H]1CCC1(CC1)[C@@H]1CCC3(CC3)[C@H]21  cancer stem cells              -1

Enquiry: Consider `C=C1CC[C@H]2C(=C)CC[C@H]3C(=C)C(=O)O[C@@H]3[C@@H]12` . Does its viability at 20 µM lie strictly below 70%?
Return: 1
